Target: human MRGPRD (Homo sapiens, UniProt Q8TDS7)
Sequence (Q8TDS7 whole entry): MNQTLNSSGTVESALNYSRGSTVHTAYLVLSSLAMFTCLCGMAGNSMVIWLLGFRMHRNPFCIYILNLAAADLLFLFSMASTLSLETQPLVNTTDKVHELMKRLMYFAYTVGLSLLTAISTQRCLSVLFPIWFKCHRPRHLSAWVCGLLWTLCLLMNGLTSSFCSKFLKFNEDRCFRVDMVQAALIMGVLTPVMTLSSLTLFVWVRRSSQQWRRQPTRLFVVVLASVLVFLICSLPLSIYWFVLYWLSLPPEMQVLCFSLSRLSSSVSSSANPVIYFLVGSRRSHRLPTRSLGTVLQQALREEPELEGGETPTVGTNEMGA
Experiment: MRGPRD antagonist activity, IP-One HTRF assay in CHO cells stably expressing human MRGPRD (versus 100 μM β-Alanine agonist)
pIC50: −log10 of the molar value.
ASSAY METRIC: pIC50

CCn1nc(C)c(-c2ccc(-n3nnc(C(=O)NCc4cnn(C)c4)c3C3CC3)cc2)c1C: 6.30 to 7.00
CC(C)n1cc(-c2ccc(-n3nnc(C(=O)Nc4ccncc4)c3C3CC3)cc2)cn1: 5.52 to 6.00
O=C(Nc1ccncc1)c1nnn(-c2ccc(-c3ccc(Cl)cc3)cc2)c1C1CC1: 6.30 to 7.00

Look up and report pIC50, with human MRGPRD (Homo sapiens, UniProt Q8TDS7) as system, for `CC(C)n1nc(C(F)(F)F)cc1-c1ccc(-n2nnc(C(=O)Nc3ccncc3)c2C2CC2)cc1` 6.00 to 6.30

Look up and report pIC50, with human MRGPRD (Homo sapiens, UniProt Q8TDS7) as system, for `O=C(Nc1ccncc1)c1nnn(-c2ccc(-c3ccc(CC(F)(F)F)cc3)cc2)c1C1CC1` 6.30 to 7.00

---

Biological target: human MRGPRD (Homo sapiens, UniProt Q8TDS7)
Experiment: MRGPRD antagonist activity, IP-One HTRF assay in CHO cells stably expressing human MRGPRD (versus 100 μM β-Alanine agonist)
Experimental: Chinese Hamster Ovary (CHO) cells stably expressing human MRGPRD (Eurofins, San Diego CA) were plated in a 384-well plate at 20,000 cells per well in 12 μL of Optimem (Fisher Scientific 11-058-021). Plates were kept in the incubator at 37° C. overnight. […] Assay plates were read on either a Molecular Devices SpectraMax iD5 plate reader or a BMG ClarioStar plate reader. The HTRF ratio was calculated form the raw data and graphed using GraphPad Prism to calculate IC50 values. […]
ASSAY METRIC: IC50

The cases that follow already have their IC50 on record.
N#CCc1ccc(-c2cccc(-n3nnc(C(=O)NC4(c5cccnc5)CC4)c3C3CC3)c2)c(F)c1: > 3000 nM
NC(=O)c1ccc(-c2ccc(-n3nnc(C(=O)NC4(c5cccnc5)CC4)c3C3CC3)cc2)cc1: 1000 to 3000 nM
CCn1cc(CNC(=O)c2nnn(-c3ccc(-c4c(C)nn(C)c4C)cc3)c2C2CC2)cn1: 100 to 500 nM
O=C(N[C@H]1CCC[C@@H]1O)c1nnn(-c2ccc(-c3ccccc3)cc2)c1C1CC1: > 3000 nM
CC(C)c1c(C(=O)NC2(c3cccnc3)CC2)nnn1-c1ccc(-c2ccccc2)cc1: > 3000 nM

Kindly indicate its recorded IC50. Item: `O=C(Nc1ccncc1)c1nnn(-c2ccc(-c3ccns3)cc2)c1C1CC1` 500 to 1000 nM

Kindly indicate its recorded IC50. Item: `CS(=O)(=O)Nc1cccc(NC(=O)c2nnn(-c3ccc(-c4ccccc4)cc3)c2C2CC2)c1` > 3000 nM

Kindly indicate its recorded IC50. Item: `C#Cc1cccc(-c2ccc(-n3nnc(C(=O)Nc4ccncc4)c3C3CC3)cc2)c1` 500 to 1000 nM

Kindly indicate its recorded IC50. Item: `Cn1ccnc1-c1ccc(-n2nnc(C(=O)Nc3ccncc3)c2C2CC2)cc1` 1000 to 3000 nM

Kindly indicate its recorded IC50. Item: `CN(C)C(=O)c1cccc(-c2ccc(-n3nnc(C(=O)Nc4ccncc4)c3C3CC3)cc2)c1` 1000 to 3000 nM

Kindly indicate its recorded IC50. Item: `Cc1c(-c2cccc(-n3nnc(C(=O)Nc4ccncc4)c3C3CC3)c2)cnn1C` 1000 to 3000 nM

Kindly indicate its recorded IC50. Item: CC(NC(=O)c1nnn(-c2ccc(-c3ccccc3)cc2)c1C1CC1)c1ccn(C)n1 (stereo not shown) 1000 to 3000 nM
